biological target: human FAK (Homo sapiens, UniProt Q05397); construct: The complete cDNA of human FAK; made in house; host or cells: baculovirus expression system (vector pFastBac HTc); experiment: FAK autophosphorylation inhibition, time resolved fluorescence (HTRF) assay; type: biochemical; settings: 10 μM (values without asterisk); read-out: FAK % inhib at 10 μM
Sequence (Q05397 whole entry): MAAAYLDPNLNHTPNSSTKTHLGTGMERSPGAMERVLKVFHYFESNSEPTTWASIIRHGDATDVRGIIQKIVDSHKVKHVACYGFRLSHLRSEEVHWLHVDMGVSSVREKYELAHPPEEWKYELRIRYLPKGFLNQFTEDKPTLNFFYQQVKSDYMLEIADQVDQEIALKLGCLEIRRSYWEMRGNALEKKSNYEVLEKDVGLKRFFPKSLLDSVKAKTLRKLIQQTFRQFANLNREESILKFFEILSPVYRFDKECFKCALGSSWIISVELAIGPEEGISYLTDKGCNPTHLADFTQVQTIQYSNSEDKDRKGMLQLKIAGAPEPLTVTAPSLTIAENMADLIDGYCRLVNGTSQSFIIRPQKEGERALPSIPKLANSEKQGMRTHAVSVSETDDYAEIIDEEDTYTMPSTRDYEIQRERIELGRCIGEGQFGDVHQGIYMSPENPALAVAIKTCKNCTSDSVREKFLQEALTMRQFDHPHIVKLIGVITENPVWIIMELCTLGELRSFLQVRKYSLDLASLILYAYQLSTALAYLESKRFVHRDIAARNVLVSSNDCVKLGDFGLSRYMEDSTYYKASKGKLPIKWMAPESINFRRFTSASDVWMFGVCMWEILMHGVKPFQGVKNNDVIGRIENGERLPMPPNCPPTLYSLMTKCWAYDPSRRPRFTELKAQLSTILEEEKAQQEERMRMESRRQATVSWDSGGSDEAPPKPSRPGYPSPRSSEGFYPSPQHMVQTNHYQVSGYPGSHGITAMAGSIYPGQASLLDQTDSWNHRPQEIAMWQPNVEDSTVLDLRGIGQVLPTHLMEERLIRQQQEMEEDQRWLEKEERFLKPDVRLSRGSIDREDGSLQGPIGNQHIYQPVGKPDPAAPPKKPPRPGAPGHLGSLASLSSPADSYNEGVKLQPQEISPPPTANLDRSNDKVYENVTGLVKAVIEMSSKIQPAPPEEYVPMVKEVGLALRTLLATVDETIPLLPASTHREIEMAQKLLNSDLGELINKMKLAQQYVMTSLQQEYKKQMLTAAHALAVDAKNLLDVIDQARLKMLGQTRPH
endpoint: inhibition at 10 µM (%)

# annotated cases, reported inhibition at 10 µM shown
>>> result("CS(=O)(=O)c1ccccc1S(=O)(=O)Nc1ccc2[nH]nc(CCc3ccccc3)c2c1 [Example 90]")
89
>>> result("N#Cc1cccc(S(=O)(=O)Nc2ccc3[nH]nc(-c4ccccc4)c3c2)c1 [Example 154]")
54
>>> result("Cc1cc(C)cc(-c2n[nH]c3ccc(NS(=O)(=O)c4ccccc4S(C)(=O)=O)cc23)c1 [Example 179]")
96
>>> result("O=C(O)c1cccc(S(=O)(=O)Nc2ccc3[nH]nc(-c4ccccc4)c3c2)c1 [Example 133]")
12
>>> result("CS(=O)(=O)c1ccccc1S(=O)(=O)Nc1ccc2[nH]nc(Br)c2c1 [Example 38]")
69

A: CS(=O)(=O)c1ccccc1S(=O)(=O)Nc1ccc2[nH]nc(-c3ccc(F)cc3)c2c1 [Example 33]
B: O=S(=O)(Nc1ccc2[nH]nc(-c3ccccc3)c2c1)c1ccc(-c2ccon2)s1 [Example 150]
Ask | Select the item whose inhibition at 10 µM value is smaller, choosing between A and B . Use the label to indicate which entry you chose.
Reply | B

Measured values drawn from patent US6858638B2 for this set.
